System: HS 578T breast
Assay name: NCI tumour cell line growth inhibition, 48 h
Field: TGI. Provide a value for each of the compounds that follow.

Per the record, COc1ccc([C@H]2C=[N+]([O-])O[C@H](OC3CCCC3)[C@@H]2OC(C)=O)cc1OC has TGI of 78.5 µM

Entry CCCCCCCCCCCCCC[n+]1cccc(C(N)=O)c1 — recorded TGI = 10.3 µM

Lab note: measured TGI of COc1ccc2[nH]c(-c3ccc(O)cc3)cc(=O)c2c1 was > 100 µM

Noted for Clc1ccc(/C(=C\c2ccccc2)Cn2ccnc2)cc1 : its TGI reads > 100 µM

TGI in this record for COC(=O)N1N=C(c2ccccc2)C1c1ccccc1 (stereo not drawn) : > 100 µM

Recorded TGI (compound O=C1c2ccccc2-c2c1c1ccccc1c(=O)n2CCNCCn1c2c(c3ccccc3c1=O)C(=O)c1ccccc1-2 ): > 25 µM

Value of TGI reported for the compound COc1ccc2c(NCCCCCCNc3c4ccccc4nc4cc(OC)ccc34)c3ccccc3nc2c1 is 0.937 µM

Just so you know, measured TGI for COc1ccc2c(c1)c(=O)c1c(NCCNCCO)ccc3c(=O)n(CCN(C)C)c(=O)n2c31 came out at 0.581 µM

GET /value?item= Nc1cc(-c2ccc(Cl)cc2)nn1-c1nnc(/C=C/c2ccco2)c(=O)[nH]1 &field=TGI returns > 64.3 µM

// sample Fc1ccc2nc(-c3cc(-c4ccc5c(c4)OCO5)n[nH]3)[nH]c2c1 , its TGI was > 100 µM

Record summary for Cc1cc(C)nc(NS(=O)(=O)c2ccc(NC(=O)c3cccc4c(NNc5ccc(S(=O)(=O)N=C(N)N)cc5)c5ccccc5nc34)cc2)n1 : reported TGI = > 50 µM

Just so you know, measured TGI for c1ccc(C2CC(=NC3CCCCC3)Nc3ccccc3N2)cc1 (stereo not drawn) came out at 94.8 µM

Record O=C1c2cccc3cccc(c23)C(=O)N1O , field TGI: > 100 µM

Field TGI (entry CSc1ccc(N(C)c2nc(C)nc3c2CCC3)cc1 ) reads > 100 µM

Input O=C(O)CN(CC(=O)O)C(C(=O)O)c1ccccc1 (stereo not drawn) . Output TGI: > 100 µM

Record Cc1cc(O)c(-c2cc(O)c(C)cc2O)cc1O , field TGI: > 72.2 µM

Summary for this compound, COC(=O)c1ccc2c(c1)C(=O)c1c-2n(CCCN=[N+]=[N-])c(=O)c2cc([N+](=O)[O-])ccc12 : TGI is > 100 µM

For this compound ( O=C(O)c1ccccc1C(=O)c1ccc2c(c1)Cc1ccccc1-2 ), measured TGI is > 100 µM

The recorded TGI for entry COC(=O)[C@H](Cc1ccccc1)NC(=O)N(CCC#N)CCN(C(=O)N[C@@H](Cc1ccccc1)C(=O)OC)c1ccccc1 equals > 100 µM

The recorded TGI for C(=C\c1ccccc1)/COc1ccccc1C(N1CCOCC1)n1nc2ccccc2n1 (stereo not drawn) is 41.2 µM

Looking up COc1ccc(-n2nc(C)c3c(Nc4ccc(NC(=O)Nc5ccc(Cl)c(C(F)(F)F)c5)cc4)ncnc32)cc1 , I see its TGI listed as 4.2 µM

TGI recorded for this compound, CC1(C)CC(C#Cc2ccccc2)CC(C)(C)N1O , is 44.9 µM

The recorded TGI for Cc1cc(NS(=O)(=O)c2ccc(NC(NC(=O)C(C(F)(F)F)C(F)(F)F)(C(F)(F)F)C(F)(F)F)cc2)no1 is > 100 µM

Recorded result, CCOC(=O)C1=CC(C)(C(=O)OCC)Nc2c(nc(N)[nH]c2=O)N1 (stereo not drawn) , TGI: > 10 µM

Item: Cc1cc(C)n(C2=NS(=O)(=O)c3ccccc3N2C)n1 | TGI: > 100 µM

C[C@H]1[C@H](C)CC[C@]2(C(=O)OC3OC(CO)C(O)C(O)C3O)CC[C@]3(C)C(=CC[C@@H]4[C@@]5(C)C[C@H]6OC(=O)c7cc(O)c(O)c(O)c7-c7c(cc(O)c(O)c7O)C(=O)O[C@@H]6C(CO)(CO)[C@@H]5CC[C@]43C)[C@H]12 (stereo partly drawn) yielded TGI of > 100 µM

// O=C(Cl)C1=C(c2ccccc2)C1c1ccccc1 (stereo not drawn) : TGI value = > 100 µM

Reported TGI ( O=S1SC(=S)C2C=CC=CC21 (stereo not drawn) ) = > 100 µM

Note to self: TGI recorded for O=C(CC(=O)Nc1ccccc1)NNC(c1cc(N=Nc2ccc(Br)cc2)ccc1O)P(O)O (stereo not drawn) was > 10 µM

// TGI value for C[n+]1c(/C=C/c2ccc(O)c3ncccc23)[se]c2ccccc21 : 63.5 µM

For reference, reported TGI for O=C(/C=C/c1ccc2c(c1)OCO2)Cc1nc2ccccc2[nH]c1=O stands at 40 µM

# compound COc1ccc(C2=C(N3CCc4ccccc43)C(=O)NC2=O)cc1 ; its TGI = > 25 µM

Field TGI (entry CC(C)N1CN(c2ccccc2)C2(CCN(CCCC(=O)c3ccc(F)cc3)CC2)C1=O ) reads 49.1 µM

Input Clc1nncc2sc(-c3ccccc3)nc12 . Output TGI: 64.7 µM

Sure, the documented TGI for O=C1/C(=C/c2ccc([N+](=O)[O-])cc2)COc2ccc(O)cc21 is > 100 µM

Form: compound = COc1ccc(C2c3cc4c(cc3OC(NCCO)C2C)OCO4)cc1 (stereo not drawn) ; TGI = 59.3 µM

So for CCCCCCCCCCCCCCCCCCOCC(COCCOCC[N+]1(CCCCCC(=O)[O-])CCCC1)Oc1ncccn1 (stereo not drawn) , the logged TGI turned out to be 28.8 µM

The value of TGI measured for the compound CCOC(=O)c1sc2ncnc(N)c2c1C turned out to be > 100 µM
